assay: Plasma protein binding (PPB), equilibrium dialysis, rat plasma; assay type: in vitro ADME; details: 5 h at 37° C., read-out: Plasma protein binding (Bound %) Rat (converted)
Provide the reported fraction unbound at 5 h, 1 μM of each item.
Give bare numbers.

Examples with their reported fraction unbound at 5 h, 1 μM follow.
>  <compound>
CC(C)(O)CCn1cc2cc(NC(=O)c3cccc(C(F)(F)F)n3)c(C(C)(C)O)cc2n1 [A, reference compound]

>  <quantitative_readout>
0.13

$$$$
>  <compound>
CCOc1cc2nn([C@H]3CC[C@H](O)CC3)cc2cc1NC(=O)c1cccc(C)[n+]1[O-] [Compound 016]

>  <quantitative_readout>
0.099

$$$$
>  <compound>
COc1cc2nn(CCC(C)(C)O)cc2cc1NC(=O)c1cccc(C)[n+]1[O-] [Compound 163]

>  <quantitative_readout>
0.194

$$$$

Your task in this section: give fraction unbound at 5 h, 1 μM for each listed record.
1. COc1cc2nn([C@H]3CC[C@H](O)CC3)cc2cc1NC(=O)c1cccc(C)[n+]1[O-] [Compound 013]
2. COc1cc2nn([C@H]3CC[C@](C)(O)CC3)cc2cc1NC(=O)c1cccc(C)[n+]1[O-] [Compound 001]

Reply:
[0.183, 0.153]

---

Provide the reported pIC50 of each item.
molecular target: CYP2C9 (Homo sapiens, UniProt P11712); construct: co-incubated at 7 concentrations with human liver microsomes and five probe substrates; tissue Corning (USA); host or cells: mixed (pooled) human liver microsomes; experiment: CYP450 inhibition in human liver microsomes, CYP2C9; assay type: in vitro ADME; conditions: pooled (mixed) human liver microsomes, probe diclofenac
Sequence (P11712 whole entry): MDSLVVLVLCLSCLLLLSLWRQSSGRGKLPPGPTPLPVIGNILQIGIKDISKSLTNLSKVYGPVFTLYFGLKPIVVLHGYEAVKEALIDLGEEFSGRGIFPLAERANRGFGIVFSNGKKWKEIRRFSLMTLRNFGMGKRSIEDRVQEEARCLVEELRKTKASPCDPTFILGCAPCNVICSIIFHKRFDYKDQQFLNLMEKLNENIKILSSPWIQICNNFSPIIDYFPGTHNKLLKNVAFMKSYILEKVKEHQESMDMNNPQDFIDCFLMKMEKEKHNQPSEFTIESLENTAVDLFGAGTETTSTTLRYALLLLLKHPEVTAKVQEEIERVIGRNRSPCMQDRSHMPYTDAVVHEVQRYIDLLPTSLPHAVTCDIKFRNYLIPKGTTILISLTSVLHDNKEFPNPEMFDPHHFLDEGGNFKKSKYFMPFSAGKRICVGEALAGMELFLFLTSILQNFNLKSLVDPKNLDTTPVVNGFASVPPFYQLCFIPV
pIC50: −log10 of the molar value.

>  <compound>
COc1cc2nn([C@H]3CC[C@](C)(O)CC3)cc2cc1NC(=O)c1cccc(C)[n+]1[O-] [Compound 001]

>  <pIC50>
< 4.52

$$$$

Field: next compound
For COc1cc2nn(CCC(C)(C)O)cc2cc1NC(=O)c1cccc(C)[n+]1[O-] [Compound 163] the compound record lists pIC50 as < 4.52

---

Target protein (sequence): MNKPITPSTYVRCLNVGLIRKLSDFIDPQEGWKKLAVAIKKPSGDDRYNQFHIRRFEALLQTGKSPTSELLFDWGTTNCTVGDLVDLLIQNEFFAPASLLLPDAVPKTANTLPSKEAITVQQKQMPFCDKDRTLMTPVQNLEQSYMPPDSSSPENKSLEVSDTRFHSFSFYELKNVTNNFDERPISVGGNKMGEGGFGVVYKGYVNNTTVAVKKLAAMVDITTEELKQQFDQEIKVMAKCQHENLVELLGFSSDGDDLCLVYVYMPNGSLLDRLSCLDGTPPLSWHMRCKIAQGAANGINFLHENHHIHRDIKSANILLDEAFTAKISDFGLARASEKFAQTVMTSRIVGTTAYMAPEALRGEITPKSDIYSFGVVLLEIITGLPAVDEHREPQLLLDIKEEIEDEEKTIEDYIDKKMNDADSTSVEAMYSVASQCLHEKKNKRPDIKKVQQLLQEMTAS
pIC50: −log10 of the molar value.
Decision: pIC50 >= 8 yields true, all other cases yield false.

For orientation, consider the following solved cases.
>  <compound>
COc1cc2nn([C@H]3CC[C@](C)(O)CC3)cc2cc1NC(=O)c1cccc(C)n1 [Compound B, reference compound]

>  <label_value>
false

$$$$
>  <compound>
COc1cc2nn([C@H]3CC[C@H](O)CC3)cc2cc1NC(=O)c1cccc(C(C)C)[n+]1[O-]

>  <label_value>
true

$$$$
>  <compound>
COc1cc2nn(CCC(C)(C)O)cc2cc1NC(=O)c1cccc(C)[n+]1[O-]

>  <label_value>
false

$$$$

Task item: Kindly determine if pIC50 recorded for COc1cc2nn(C3CCCC3)cc2cc1NC(=O)c1cccc(C)[n+]1[O-] is above or exactly 8.
Reply: false

---

molecular target: CYP2C19 (Homo sapiens, UniProt P33261); construct: co-incubated at 7 concentrations with human liver microsomes and five probe substrates; tissue Corning (USA); host or cells: mixed (pooled) human liver microsomes; experiment: CYP450 inhibition in human liver microsomes, CYP2C19; assay type: in vitro ADME; settings: pooled (mixed) human liver microsomes, probe mephenytoin
Sequence (P33261 whole entry): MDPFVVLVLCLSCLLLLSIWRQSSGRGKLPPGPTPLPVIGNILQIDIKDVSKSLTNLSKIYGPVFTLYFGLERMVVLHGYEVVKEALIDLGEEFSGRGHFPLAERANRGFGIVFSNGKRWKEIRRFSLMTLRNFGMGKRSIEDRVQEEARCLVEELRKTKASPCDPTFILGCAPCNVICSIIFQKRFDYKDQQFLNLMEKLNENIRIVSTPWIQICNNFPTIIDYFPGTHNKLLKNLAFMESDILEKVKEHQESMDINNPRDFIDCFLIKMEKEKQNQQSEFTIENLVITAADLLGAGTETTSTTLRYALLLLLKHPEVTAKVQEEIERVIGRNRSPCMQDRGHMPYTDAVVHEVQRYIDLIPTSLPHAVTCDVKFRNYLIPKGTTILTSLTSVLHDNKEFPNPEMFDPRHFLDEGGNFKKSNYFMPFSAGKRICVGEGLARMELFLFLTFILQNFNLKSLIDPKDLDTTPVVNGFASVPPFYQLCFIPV
Provide the reported IC50 of each item.

>  <compound>
COc1cc2nn(CCC(C)(C)O)cc2cc1NC(=O)c1cccc(C)[n+]1[O-] [Compound 163]

>  <recorded_metric>
IC50

>  <result>
> 30 µM

$$$$

Field: next compound
Item: COc1cc2nn([C@H]3CC[C@](C)(O)CC3)cc2cc1NC(=O)c1cccc(C)[n+]1[O-] [Compound 001] | System: CYP2C19 (Homo sapiens, UniProt P33261) | IC50: > 30 µM

---

Provide the reported inhibition at 5 min, 30 µM of each item.
biological target: hERG potassium ion channel (Homo sapiens, UniProt Q12809); construct: expressed in transfected cells; host or cells: HEK-293; assay: hERG whole-cell patch clamp in HEK-293 cell line stably expressing hERG; format: cell-based; settings: HEK-293 cells stably expressing hERG, pH 7.4, HEK-293 cells expressing hERG, mean ± spread
Sequence (Q12809 whole entry): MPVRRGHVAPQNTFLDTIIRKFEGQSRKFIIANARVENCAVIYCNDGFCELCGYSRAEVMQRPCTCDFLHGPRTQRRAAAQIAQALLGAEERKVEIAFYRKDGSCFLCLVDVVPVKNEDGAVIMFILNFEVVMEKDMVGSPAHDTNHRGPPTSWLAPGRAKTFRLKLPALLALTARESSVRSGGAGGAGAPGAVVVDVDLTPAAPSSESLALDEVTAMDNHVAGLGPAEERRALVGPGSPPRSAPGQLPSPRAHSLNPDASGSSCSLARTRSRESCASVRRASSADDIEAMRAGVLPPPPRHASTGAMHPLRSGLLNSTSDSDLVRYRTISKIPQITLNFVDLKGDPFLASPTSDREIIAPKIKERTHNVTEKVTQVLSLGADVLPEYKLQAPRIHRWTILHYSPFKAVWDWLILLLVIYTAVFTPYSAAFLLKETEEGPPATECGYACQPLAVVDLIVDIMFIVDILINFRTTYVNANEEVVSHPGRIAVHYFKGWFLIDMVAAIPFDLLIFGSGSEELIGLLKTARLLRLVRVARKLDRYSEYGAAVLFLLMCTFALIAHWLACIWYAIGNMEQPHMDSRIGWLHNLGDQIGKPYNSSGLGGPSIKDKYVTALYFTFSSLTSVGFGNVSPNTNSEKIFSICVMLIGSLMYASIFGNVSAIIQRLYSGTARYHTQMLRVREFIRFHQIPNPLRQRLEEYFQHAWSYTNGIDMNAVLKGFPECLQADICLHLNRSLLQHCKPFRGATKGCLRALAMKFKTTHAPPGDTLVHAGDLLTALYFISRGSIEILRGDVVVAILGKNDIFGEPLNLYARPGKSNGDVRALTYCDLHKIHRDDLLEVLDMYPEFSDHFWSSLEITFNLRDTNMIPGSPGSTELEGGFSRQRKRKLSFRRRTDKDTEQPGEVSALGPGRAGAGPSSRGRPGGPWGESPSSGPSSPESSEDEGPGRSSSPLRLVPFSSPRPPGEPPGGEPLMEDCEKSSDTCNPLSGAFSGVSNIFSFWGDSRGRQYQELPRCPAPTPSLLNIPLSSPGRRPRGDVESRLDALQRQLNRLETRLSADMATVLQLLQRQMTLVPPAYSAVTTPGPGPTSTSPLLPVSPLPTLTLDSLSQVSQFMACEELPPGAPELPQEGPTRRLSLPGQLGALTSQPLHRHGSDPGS
Give the figure together with its unit, number first.

>  <molecule>
COc1cc2nn(CCC(C)(C)O)cc2cc1NC(=O)c1cccc(C)[n+]1[O-] [Compound 163]

>  <target>
hERG potassium ion channel (Homo sapiens, UniProt Q12809)

>  <inhibition at 5 min, 30 µM>
8.73%

$$$$

For COc1cc2nn([C@H]3CC[C@](C)(O)CC3)cc2cc1NC(=O)c1cccc(C)[n+]1[O-] [Compound 001] the molecule record lists inhibition at 5 min, 30 µM as 5.09%

---

target: CYP3A4 (Homo sapiens, UniProt P08684); construct: The test compounds were co-incubated with the human liver microsomes and a probe substrate midazolam (CYP3A4); tissue Corning (USA); host or cells: mixed (pooled) human liver microsomes; assay: CYP450 inhibition in human liver microsomes, CYP3A4-M; format: in vitro ADME; settings: human, microsomes
Sequence (P08684 whole entry): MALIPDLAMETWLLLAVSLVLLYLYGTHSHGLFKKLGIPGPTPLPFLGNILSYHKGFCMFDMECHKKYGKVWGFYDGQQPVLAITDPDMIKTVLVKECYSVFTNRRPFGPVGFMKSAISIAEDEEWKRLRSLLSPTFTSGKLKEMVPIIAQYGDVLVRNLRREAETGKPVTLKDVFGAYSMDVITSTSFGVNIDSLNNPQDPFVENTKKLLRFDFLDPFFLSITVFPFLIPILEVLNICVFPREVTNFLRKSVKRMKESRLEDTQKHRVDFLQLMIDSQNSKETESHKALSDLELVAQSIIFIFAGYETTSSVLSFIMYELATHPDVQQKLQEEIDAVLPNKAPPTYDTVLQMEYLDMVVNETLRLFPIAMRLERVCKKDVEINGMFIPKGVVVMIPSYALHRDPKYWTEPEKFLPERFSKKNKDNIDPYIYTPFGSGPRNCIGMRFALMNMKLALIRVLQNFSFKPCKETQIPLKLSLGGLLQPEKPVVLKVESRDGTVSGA
pIC50: −log10 of the molar value.
recorded_metric: pIC50

Item: CC(C)(O)CCn1cc2cc(NC(=O)c3cccc(C(F)(F)F)n3)c(C(C)(C)O)cc2n1 [A, reference compound] | System: CYP3A4 (Homo sapiens, UniProt P08684) | pIC50: < 4.52

---

Provide the reported pIC50 of each item.
biological target: human IRAK4 (Homo sapiens)
Numbers only, as −log10 of the molar value.

Examples with their reported pIC50 follow.
>  <line_notation>
CCOc1cc2nn([C@H]3CC[C@@H](O)CC3)cc2cc1NC(=O)c1cccc(C)[n+]1[O-]

>  <quantitative_readout>
7.85

$$$$
>  <line_notation>
C#C[C@]1(O)CC[C@H](n2cc3cc(NC(=O)c4cccc(C)[n+]4[O-])c(OC)cc3n2)CC1

>  <quantitative_readout>
8.04

$$$$
>  <line_notation>
COc1cc2nn([C@H]3CC[C@@](O)(CC#N)CC3)cc2cc1NC(=O)c1cccc(C)[n+]1[O-]

>  <quantitative_readout>
8.15

$$$$
>  <line_notation>
COc1cc2nn([C@H]3CC[C@](C)(C#N)CC3)cc2cc1NC(=O)c1cccc(C)[n+]1[O-]

>  <quantitative_readout>
7.85

$$$$
>  <line_notation>
Cc1cccc(C(=O)Nc2cc3cn([C@H]4CC[C@](C)(O)CC4)nc3cc2N(C)C)[n+]1[O-]

>  <quantitative_readout>
7.96

$$$$

Your task in this section: give pIC50 for each listed record.
1. Cc1cccc(C(=O)Nc2cc3cn([C@H]4CC[C@@H](O)CC4)nc3cc2OCC2CC2)[n+]1[O-]
2. Cc1cccc(C(=O)Nc2cc3cn([C@H]4CC[C@@](C)(O)CC4)nc3cc2N(C)C)[n+]1[O-]

Reply:
1. 7.85
2. 7.89

For COc1cc2nn([C@H]3CC[C@](C)(O)CC3)cc2cc1NC(=O)c1cccc(C)[n+]1[O-] the molecule record lists pIC50 as 8.22
